Biological target: CYP106A2 (Priestia megaterium, UniProt Q06069)
Sequence (Q06069 1-410): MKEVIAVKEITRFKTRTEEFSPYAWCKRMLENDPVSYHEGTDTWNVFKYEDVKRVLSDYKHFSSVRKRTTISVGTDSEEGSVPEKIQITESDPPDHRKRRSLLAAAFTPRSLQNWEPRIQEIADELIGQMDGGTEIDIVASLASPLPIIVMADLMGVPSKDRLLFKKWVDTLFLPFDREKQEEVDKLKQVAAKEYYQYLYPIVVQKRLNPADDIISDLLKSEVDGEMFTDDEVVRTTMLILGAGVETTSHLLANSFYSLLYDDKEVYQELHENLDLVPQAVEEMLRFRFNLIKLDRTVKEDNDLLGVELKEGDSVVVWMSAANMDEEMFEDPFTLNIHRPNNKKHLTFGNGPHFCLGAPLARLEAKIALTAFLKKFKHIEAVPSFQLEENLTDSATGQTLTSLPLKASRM
Readout: pKd
# log scale: pKd equals minus log10 of the concentration in mol/L

INPUT: # pKd lookup, item C[C@]12CCC(=O)C=C1CC[C@@H]1[C@@H]2CC[C@]2(C)C(=O)CC[C@@H]12 [androstenedione]
OUTPUT: 4.04
